- Test system: SETVI
- Assay Text: Pre-emergence herbicidal action
- Format: in vivo, Setaria viridis
- Condition Summary: pre-emergence, 320 g/ha, scored visually after about 3 weeks vs untreated controls
Measured Attribute: herbicidal activity SETVI (%)

Compound: Cn1nnnc1NC(=O)c1ccc(C(F)F)c2c1OCS2(=O)=O
Measured Number: 90
//
Compound: CC1Oc2c(C(=O)Nc3nnnn3C)ccc(C(F)(F)F)c2S1(=O)=O (centres unmarked)
Measured Number: 90
//
Compound: CCn1nnnc1NC(=O)c1ccc(C(F)(F)F)c2c1OC[S+]2[O-] (centres unmarked)
Measured Number: 80
//
Compound: Cn1nnnc1NC(=O)c1ccc(C(F)(F)F)c2c1OC[S+]2[O-] (centres unmarked)
Measured Number: 100
//
Compound: Cn1nnnc1NC(=O)c1ccc(C(F)F)c2c1OC[S+]2[O-] (centres unmarked)
Measured Number: 90
//
Compound: Cn1nnnc1NC(=O)c1ccc(C(F)(F)F)c2c1OCS2(=O)=O
Measured Number: 100
//
Compound: CC1Oc2c(C(=O)Nc3nnnn3C)ccc(C(F)(F)F)c2S1 (centres unmarked)
Measured Number: 100
//
Compound: CCn1nnnc1NC(=O)c1ccc(C(F)(F)F)c2c1OCS2
Measured Number: 90

---

- Test system: STEME
- Assay Text: Post-emergence herbicidal action
- Assay type: in vivo, Stellaria media
- Condition Summary: 80 g/ha, rated visually after about 3 weeks vs untreated controls
Listed below: herbicidal activity STEME values for each entry.
Measured Attribute: herbicidal activity STEME (%)

Compound: CC1Oc2c(C(=O)Nc3nnnn3C)ccc(C(F)(F)F)c2S1 (stereo not drawn)
Result Units: %
Measured Number: 100
//
Compound: CCn1nnnc1NC(=O)c1ccc(C(F)(F)F)c2c1OCS2(=O)=O
Result Units: %
Measured Number: 100
//
Compound: Cn1nnnc1NC(=O)c1ccc(C(F)(F)F)c2c1OCS2(=O)=O
Result Units: %
Measured Number: 100

---

Listed below: herbicidal activity ECHCG values for each entry.
- Tested on: ECHCG
- Assay Text: Pre-emergence herbicidal action
- Type: in vivo, Echinochloa crus-galli
- Condition Summary: 320 g/ha, scored visually after about 3 weeks vs untreated controls

Molecule: Cn1nnnc1NC(=O)c1ccc(C(F)(F)F)c2c1OCS2(=O)=O [Example 2-83]
herbicidal activity ECHCG: 100%
--
Molecule: CCn1nnnc1NC(=O)c1ccc(C(F)(F)F)c2c1OCS2(=O)=O [Example 3-82]
herbicidal activity ECHCG: 100%
--
Molecule: Cn1nnnc1NC(=O)c1ccc(C(F)F)c2c1OC[S+]2[O-] (stereo not shown) [Example 2-69]
herbicidal activity ECHCG: 90%
--
Molecule: Cn1nnnc1NC(=O)c1ccc(C(F)(F)F)c2c1OC[S+]2[O-] (stereo not shown) [Example 2-68]
herbicidal activity ECHCG: 90%
--
Molecule: CCn1nnnc1NC(=O)c1ccc(C(F)(F)F)c2c1OC[S+]2[O-] (stereo not shown) [Example 3-67]
herbicidal activity ECHCG: 100%
--
Molecule: CCn1nnnc1NC(=O)c1ccc(C(F)(F)F)c2c1OCS2 [Example 3-52]
herbicidal activity ECHCG: 90%
--
Molecule: CC1Oc2c(C(=O)Nc3nnnn3C)ccc(C(F)(F)F)c2S1(=O)=O (stereo not shown) [Example 2-106]
herbicidal activity ECHCG: 90%

---

- Tested on: PHBPU
- Assay Text: Post-emergence herbicidal action
- Assay type: in vivo, Ipomoea purpurea
- Condition Summary: 80 g/ha, rated visually after about 3 weeks vs untreated controls
Measured Attribute: herbicidal activity PHBPU (%)

Compound: Cc1ccc(C(=O)Nc2nnnn2C)c2c1SCO2
Measured Number: 80
--
Compound: CCn1nnnc1NC(=O)c1ccc(C(F)(F)F)c2c1OCS2
Measured Number: 100
--
Compound: Cn1nnnc1NC(=O)c1ccc(C(F)(F)F)c2c1OCS2(=O)=O
Measured Number: 90
--
Compound: Cn1nnnc1NC(=O)c1ccc(C(F)F)c2c1OC[S+]2[O-] (stereo not shown)
Measured Number: 80
--
Compound: Cn1nnnc1NC(=O)c1ccc(C(F)F)c2c1OCS2
Measured Number: 80
--
Compound: CC1Oc2c(C(=O)Nc3nnnn3C)ccc(C(F)(F)F)c2S1(=O)=O (stereo not shown)
Measured Number: 80
--
Compound: Cn1nnnc1NC(=O)c1ccc(C(F)(F)F)c2c1OC[S+]2[O-] (stereo not shown)
Measured Number: 90
--
Compound: Cn1nnnc1NC(=O)c1ccc(C(F)F)c2c1OCS2(=O)=O
Measured Number: 90
--
Compound: CCn1nnnc1NC(=O)c1ccc(C(F)(F)F)c2c1OC[S+]2[O-] (stereo not shown)
Measured Number: 100
--
Compound: CCn1nnnc1NC(=O)c1ccc(C(F)(F)F)c2c1OCS2(=O)=O
Measured Number: 90
